B1: library; a variant is named by its letters at N, in order (parent)
chain: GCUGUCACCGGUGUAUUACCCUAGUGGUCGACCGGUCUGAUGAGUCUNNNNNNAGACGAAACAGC

- Variants of: B1
- measurementNotes: normalized RNA/DNA level without ligand (relative to sTRSVctl = 100) (log10 (% of sTRSVctl)); ligand: hypoxanthine (xanthine aptamer); higher = less ribozyme self-cleavage, higher mRNA level
- conditionSummary: HEK293T, reporter: mCherry (pCS4076), ligand present: no
endpoint: normalized RNA/DNA level without ligand (log10)

> print(dat)
    mutationannotation  valueobserved
 1              AGCAAG           1.45
 2              CUAAUA           1.79
 3              CUGCUC           2.01
 4              UAUCAG            1.7
 5              UGGCAU           1.75
 6              AUCGCC           1.91
 7              GCCUCA            1.9
 8              AAGUUA           1.61
 9              GGCUCG           1.83
10              CUCGAA           1.75
11              CCUGUA           1.89
12              AGUUGC           1.72
13              UCAGGA           1.44
14              GUUCUU           1.92
15              CGACGA            1.8
16              CCUUAA           1.85
17              CCUGAA           1.78
18              CCUAAG           1.66
19              GGAAAU           1.77
20              AUAAGA           1.72
21              ACCCCC           1.88
22              AAGGUU           1.78
23              AGAAUC           1.91
24              UUGGAG           1.68
25              UAGAGG           1.21
26              CCGCUA           1.83
27              UGGGAC           1.83
28              CUGCAG           1.73
29              UCGUUA           1.74
30              GCAGAC           1.55
31              ACUGAA           1.74
32              ACAAUU           1.74
33              CUGAGA           1.77
34              AAACUC           1.95
35              UUCUUC           2.06
36              AAUAGC           1.73
37              UGCCGC           1.93
38              ACAUCG           1.57
39              UCCCUC           1.66

Recorded values, source the supplement of paper PMC6757056.
